B1: GOLPH3 (parent)
chain: FAPLLDEQYDLATKRVRQLLDLDP

Variants of: B1
protocol.notes: protein stability index of a GFP-peptide fusion (GPS, HEK-293T) (PSI 1-6); higher = more stable;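 also: lentivirally expressed fusions sorted by FACS into six bins by GFP to DsRed ratio, PSI derived from sequencing read proportions per bin multiplied by bin number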
conditions: c terminus: a fixed tail appended
Class condition met: protein stability index at least 2. Class condition not met: protein stability index below 2.

seq	answer.label
FAPLEDEQYDLATKRVRQLLDLDP [L5E]	condition met
FAPLLDEQYDLATKRVRQLLDLDT [P24T]	condition met
FAPLLDEQYDLATKRVRQLLQLDP [D21Q]	condition met
FAPLLDEQYDLATKKVRQLLDLDP [R15K]	condition not met
FAPLLDEQYDLATKRVRQLYDLDP [L20Y]	condition not met
FAPLLDEQYDLATKRVRQLLRLDP [D21R]	condition not met
